Provide the reported IC50 of each item.
# system_under_test: Integrin alpha-M/beta-2 (Homo sapiens, UniProt P05107+P11215)
# Sequence (P05107 23-769 limits assumed, other chains not shown): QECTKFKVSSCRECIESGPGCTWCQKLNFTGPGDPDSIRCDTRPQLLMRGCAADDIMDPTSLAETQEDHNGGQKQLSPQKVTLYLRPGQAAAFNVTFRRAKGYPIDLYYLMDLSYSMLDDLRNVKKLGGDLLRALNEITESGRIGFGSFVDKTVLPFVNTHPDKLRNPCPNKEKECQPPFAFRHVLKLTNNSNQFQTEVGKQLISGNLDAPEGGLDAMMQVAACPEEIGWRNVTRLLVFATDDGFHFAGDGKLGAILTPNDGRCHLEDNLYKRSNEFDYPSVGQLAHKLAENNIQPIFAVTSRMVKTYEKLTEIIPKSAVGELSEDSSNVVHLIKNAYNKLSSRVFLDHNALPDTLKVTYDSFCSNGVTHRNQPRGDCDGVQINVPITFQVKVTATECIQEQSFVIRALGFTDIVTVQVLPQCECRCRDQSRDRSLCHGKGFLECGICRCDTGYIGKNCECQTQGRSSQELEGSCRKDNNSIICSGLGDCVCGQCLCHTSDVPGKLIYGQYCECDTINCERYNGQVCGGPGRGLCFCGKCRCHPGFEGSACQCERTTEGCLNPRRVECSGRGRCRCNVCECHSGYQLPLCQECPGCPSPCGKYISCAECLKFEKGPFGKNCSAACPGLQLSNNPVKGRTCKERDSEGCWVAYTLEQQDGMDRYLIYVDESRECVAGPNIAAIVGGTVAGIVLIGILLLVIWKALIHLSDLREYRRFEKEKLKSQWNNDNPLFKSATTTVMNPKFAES
# assay_overview: Binding affinity to alphaMbeta2 integrin receptor (unknown origin) preincubated for 30 mins followed by 30 mins incubation in fibrinogen coated wells by fluorescence based assay
Starred links: 1 amine or outer side, 2 acyl side, 3 side chain; linkers in the order of their positions; H or OH if unused. Positions of bridges follow the written chain, without caps; N, C: chain ends. Non-standard residues stand in square brackets, D forms with d. Residues, ends and D or L forms follow the SMILES beside them. Groups on a side chain read outwards from the residue. *: point of attachment. Phe(4-NH2) = Nc1ccc(C[C@H](N)C(=O)O)cc1; X1 = O=C(Cc1ccc(N[*:1])cc1)[*:2]; NH(2-Me-phenyl) = Cc1ccccc1N*; CO = O=C([*:1])[*:2]

compound | measured_metric | reported_result
Cc1ccccc1NC(=O)Nc1ccc(CC(=O)N[C@@H](CC(C)C)C(=O)N[C@@H](CC(=O)O)C(=O)N[C@H](C(=O)N2CCC[C@H]2C(=O)O)C(C)C)cc1 ({NH(2-Me-phenyl)-CO}-[X1]LDVP-OH) | IC50 | > 1 µM

As a next step, examine the compound that follows.
Task: Give the reported value of IC50 for this record: Cc1ccccc1NC(=O)Nc1ccc(C[C@@H]2NC(=O)C[C@@H](C(=O)O)NC(=O)[C@H](C(C)C)NC(=O)[C@H](C)NC(=O)[C@H](Cc3ccccc3)NC2=O)cc1 ([Phe(4-NH2)]([CO-NH(2-Me-phenyl)])FAVD-OH; lactam N-5)
Output: > 5 µM
